GI50 by entry:
assay: Inhibition of cell growth of human SJG2 cells measured after 72 hrs by MTT assay; type: functional; settings: SJ-G2

Check out these entries, answers already filled in.
| moleculeSmiles | GI50 |
| --- | --- |
| COc1cccc(-c2cn(CCCN3CCN(S(=O)(=O)c4ccc(C)cc4)CC3)nn2)c1 | > 50 µM |
| COc1cccc(-c2cn(CCCN3CCN(S(=O)(=O)c4ccccc4)CC3)nn2)c1 | 42 µM |
| COc1cccc(-c2cn(CCCN3CCN(S(=O)(=O)c4ccc([N+](=O)[O-])cc4)CC3)nn2)c1 | > 50 µM |
| COc1ccc(S(=O)(=O)N2CCN(CCCn3cc(-c4cccc(OC)c4)nn3)CC2)cc1 | 32 µM |
| COc1cccc(-c2cn(CCCN3CCN(S(=O)(=O)c4ccc(C(F)(F)F)cc4)CC3)nn2)c1 | > 50 µM |

Below: the item to evaluate.
Enquiry: Query (molecule): COc1cccc(-c2cn(CCCN3CCN(S(=O)(=O)c4ccc(Br)cc4)CC3)nn2)c1 ; field requested: GI50
Return: 23 µM
